Biological target: recombinant human CCR5 receptor (Homo sapiens, UniProt P51681)
Sequence (P51681 whole entry): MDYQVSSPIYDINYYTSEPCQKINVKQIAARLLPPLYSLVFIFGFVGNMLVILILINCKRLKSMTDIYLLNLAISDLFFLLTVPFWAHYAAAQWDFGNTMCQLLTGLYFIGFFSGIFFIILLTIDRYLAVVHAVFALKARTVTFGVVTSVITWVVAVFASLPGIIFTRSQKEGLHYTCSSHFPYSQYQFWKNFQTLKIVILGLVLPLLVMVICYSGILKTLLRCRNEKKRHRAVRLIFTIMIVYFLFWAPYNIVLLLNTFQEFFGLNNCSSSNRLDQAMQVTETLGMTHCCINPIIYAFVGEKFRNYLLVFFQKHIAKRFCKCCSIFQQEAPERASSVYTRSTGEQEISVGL
Assay: MIP-1α radioligand binding assay (scintillation proximity)
Conditions: displacement of 0.1 nM iodinated MIP-1α; membranes of Chinese hamster ovary cells expressing recombinant human CCR5; average if tested more than once
Protocol: The ability of compounds to inhibit the binding of MIP-1α was assessed by an in vitro radioligand binding assay. Membranes were prepared from Chinese hamster ovary cells which expressed the recombinant human CCR5 receptor. These membranes were incubated with 0.1 nM iodinated MIP-1α, scintillation proximity beads and various concentrations of the compounds of the invention in 96-well plates. The amount of iodinated MIP-1α bound to the receptor was determined by scintillation counting. […]
Labelling field: enter Fulfilled if recorded IC50 is less than 6 nM. Enter Not fulfilled if it equals or exceeds that cut-off.

Consider the worked cases shown below.
CS(=O)(=O)c1ccc(NC(=O)CC2CCN(CCC(c3ccccc3)N3CCN(c4ccccc4)CC3)CC2)cc1 (centres unmarked) [Table I Compound 3]	Not fulfilled
CS(=O)(=O)c1ccc(NC(=O)CC2CCN(CCC(c3ccccc3)C3CCN(C(=O)c4ccc(Cl)cc4)CC3)CC2)cc1 (centres unmarked) [Table I Compound 5]	Fulfilled
CS(=O)(=O)N1CCC(C(CCN2CCC(CC(=O)Nc3ccc(F)cc3)CC2)c2ccccc2)CC1 (centres unmarked) [Table I Compound 6]	Fulfilled

Below 6 nM on IC50? Entry CS(=O)(=O)c1ccc(NC(=O)CC2CCN(CC[C@@H](c3ccccc3)c3ccc(S(C)(=O)=O)cc3)CC2)cc1 [Table IV Compound 1]
Fulfilled

Does the reported IC50 of CS(=O)(=O)c1ccc(CNC(=O)CCC2CCN(CCC(c3ccccc3)C3CCN(S(C)(=O)=O)CC3)CC2)cc1 (single isomer, unassigned) [Table V Compound 3] stay below 6 nM?
Not fulfilled
